B1: FUNDC2 (parent)
chain: YIKVDWQRVEKDMKKAKEQLKIRK

# Variants of: B1
# Test: protein stability index of a GFP-peptide fusion (GPS, HEK-293T) (PSI 1-6); higher = more stable;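 note: lentivirally expressed fusions sorted by FACS into six bins by GFP to DsRed ratio, PSI derived from sequencing read proportions per bin multiplied by bin number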
# Test Context: c terminus: a fixed tail appended
# reported protein stability index; entries follow

>  <Variant Description>
K14S

>  <protein stability index>
2.03

$$$$
>  <Variant Description>
K3F

>  <protein stability index>
1.98

$$$$
>  <Variant Description>
K17N

>  <protein stability index>
1.95

$$$$
>  <Variant Description>
A16L

>  <protein stability index>
1.95

$$$$
>  <Variant Description>
I22N

>  <protein stability index>
1.98

$$$$

Source: the supplement of paper PMC10567573
